Tested on: MS2 coat protein
Experiment: apparent KD of MS2 coat protein, switch ON state; designed switch direction (-1 OFF switch, 1 ON switch): -1; higher = weaker reporter binding
Details: FMN input: 0 or 200 uM; Eterna round: R93 (includes R88 designs)
Quick reference for apparent KD of MS2 coat protein among some sequences

| SEQUENCE_TEXT | EXPERIMENTAL_TARGET | apparent KD of MS2 coat protein [nM] |
| --- | --- | --- |
| AGUUGGCGAGGAUAUACAUGAGGAUCACCCAUGUGAGAGAAAAAAAGAAGAAAAAAAAGUAGAAGGCGCUGACA [Mat - Exclusion 3 - Lego mod - D43] | MS2 coat protein | 44.2 |
| GAAAAGUCAGGAUAUGCAGACAAAGCAAAAAAGCAAUGUCUGCAGAAGGGACAUGAGGAUCACCCAUGUAAAAG [Mat - Exclusion 4 - Mayanna - D116] | MS2 coat protein | 61.1 |
| ACAUGACAUGAGGAUCACCCAUGUGAGGAUAUGCGAAAAAAAUUUUUAAAAAAAAUUGGCAGAAGGCACAAAAU [George Ritzer.] | MS2 coat protein | 88.9 |

###

Tested on: MS2 coat protein
Experiment: apparent KD of MS2 coat protein; designed switch direction (-1 OFF switch, 1 ON switch): -1; higher = weaker reporter binding
Conditions: Eterna round: R95; input ligand: none
QUANTITY: apparent KD of MS2 coat protein (nM)

| SEQUENCE_TEXT | UNIT_SYMBOL | ASSAY_VALUE |
| --- | --- | --- |
| UUUUAACAUGAGGAUCACCCAUGUGAGGAUAUGAUUUUUUUUUUUUUUUUUUUUUUUUUCAGAAGGCACAUUUU [My solution] (puzzle: Exclusion 1) | nM | 42.4 |
| GGUAGUAUGAGUAGUCCUCAUUGAAGAGAUUGGUAAGAUACAUGAGGAUCACCCAUGUUUGAACAAGCUUUUGCUCU [JR_Sv3TOV2_Sub007] (puzzle: Sensor v3, turn-off variant 2) | nM | 82.8 |
| ACAAGCUUUAGGCGUGUGAACAUGAGGAUCACCCAUGUAUUUUUGGUUAGGAGUUCUGUAAGGGAUGCUCGUCUUAU [JR_SWV3TOV1_Sub091] (puzzle: Sensor v3, turn-off variant 1) | nM | 48.9 |
| UGAGUGUGAGGAUAUGGUAAAGAUAAGAUGAUGAAAGAACUCCAGAAGGCACAUGAGGAUCACCCAUGUAGAUG [JL-ex4-2.12 Jieux mod] (puzzle: Exclusion 4) | nM | 35.7 |
| CAUGAUCUUCGGAUCAUGUACAUGAGGAUCACCCAUGUGACGAGUUACAUGAAAAACAAGCUUUUUGCUCGUCUUAU [Sensor v3 - Turn-off variant 1 - 9] (puzzle: Sensor v3, turn-off variant 1) | nM | 49.8 |
| AAUAGCAAGUAGAUCCUAAACAUGAGGAUCACCCAUGUGCUCGUCUUGUAAAGUACUAUCACGAAAGUGAUAGUACA [Sensor 3, v1 - 57] (puzzle: Sensor v3, turn-off variant 1) | nM | 233 |
| ACGUCCCAAGUCAGGAUAUAGGCCGGACAAAGGGACUAGAAGGGACAUGAGGAUCACCCAUGUGGGCAAAAGAC [Terarace] (puzzle: Brourd's mod of Exclusion 4) | nM | 32 |
| CUUCUCAGAGGAUAUCACGGUAAUAACAUGAGGAUCACCCAUGUGGAAUUCGUGUCCCUGUGAGAAGGCUGAGAAG [Bezavere] (puzzle: Exclusion 5) | nM | 16 |
| GCUUUUCUUUUCCUUUCUUACAUGAGGAUCACCCAUGUUUCUUGUCGCGCUCGCGUUGCUCGUCUGUCUGUCUGUUG [salish99_TOv1_r3_079] (puzzle: Sensor v3, turn-off variant 1) | nM | 54.7 |
| UCGUGGUAAAUCAGAAGUUUCCUGAGCGGAGGAACUUUGACAUGAGGAUCACCCAUGUUGCUUUUUGCUCAUCUUAA [JR_SV3TOV2_Sub043] (puzzle: Sensor v3, turn-off variant 2) | nM | 12.9 |
| CGUAGUCUUCGGACUACGAACAUGAGGAUCACCCAUGUAUAGAGCAGAUCUUCAUGCAAGCUUUUUGCUCGUCUUAU [Sensor v3 - turn-off variant 1 - 48] (puzzle: Sensor v3, turn-off variant 1) | nM | 86.6 |
| GUUAAGGUAGGAUAUACGAUAAUAUAGGGUAGAAUAUUAACACAUGAGGAUCACCCAUGUAGAAGGACCAAUUG [Mat - Exclusion 2 - Mod of my Tesla design - D51] (puzzle: Exclusion 2) | nM | 22.8 |
| GGUACUAACACGAAAGUGUUAGUACUAUAAGCUUGUGUUACAUGAGGAUCACCCAUGUCCUCAUAAGCUCGUCUUGU [JL-sv3-2.19 mat747 mod] (puzzle: Sensor v3, turn-off variant 2) | nM | 44.9 |
| CUAGUCCGAGGAUAUAUUAUGUGAUACAUGAGGAUCACCCAUGUUAUAUGAUGGAUGUUAGUAGAAGGCGGACUAG [Mat - Exclusion 5 - JL mod - D81] (puzzle: Exclusion 5) | nM | 79.3 |
| CUCCUCAUGACGCCUAAACACAUGAGGAUCACCCAUGUACAGGCUUUUUGUCGUCUUAUAAUAAAACCGAGGAUACG [Orlaorusti] (puzzle: Sensor v3, turn-off variant 1) | nM | 23.2 |
| GGGAUGUGAGGAUAUCGAGGUGGAAAGCACCUAACAGAAAACGAGAAGGCACAUGAGGAUCACCCAUGUAAUAC [Ditete] (puzzle: Exclusion 4) | nM | 19.8 |
| UUUAAUUUUUUUUUUUUACAAGCUUUUUGCUCGUCUUAUACAUGAGGAUCACCCAUGUGGGUAGGAGAUAAAUUAUC [JMF 16] (puzzle: Sensor v3, turn-off variant 2) | nM | 57 |
| GGUACUAACACGAUAGUGUUAGUACUAUAAGCUUGUGUUACAUGAGGAUCACCCAUGUCCUCAUAGGCUCGUCUUAG [Mat - Sensor v3 - Turn-off var 2 - D85] (puzzle: Sensor v3, turn-off variant 2) | nM | 106 |
| UUUUAACAUGAGGAUCACCCAUGUGAGGAUAUCGUAUUUUAUAUUAAUAUUAAUAAAACGAGAAGGCACAUUUU [JMF 9] (puzzle: Exclusion 1) | nM | 29.5 |
| CCGAGCAGACGGAGAUCCAACAUGAGGAUCACCCAUGUCUCAAAAGCUUUUUGCUCGUCUUAUCCUCCUCUGUUCUC [Legedi] (puzzle: Sensor v3, turn-off variant 1) | nM | 25.7 |

###

System: MS2 coat protein
Assay: apparent KD of MS2 coat protein; designed switch direction (-1 OFF switch, 1 ON switch): -1; higher = weaker reporter binding
Settings: Eterna round: R95; input ligand: none
We use 600 nM as the dividing line for apparent KD of MS2 coat protein: on or above the line is Condition met, below is Condition not met.

| SEQUENCE_TEXT | EXPERIMENTAL_TARGET | LABEL_VALUE |
| --- | --- | --- |
| AGUACUAACACGAGAGUGUUAGUACUAUAAGCUUGUGUUACAUGAGGAUCACCCAUGUCCUCAUAAGCUCGUCUUAA [Mat - Sensor v3 - Turn-off var 2 - D64] (puzzle: Sensor v3, turn-off variant 2) | MS2 coat protein | Condition not met |
| UGGGUUCUCCAUAGAAGUAACAUGAGGAUCACCCAUGUAGGGCAAGUUUUUUGCUCGUCAUAGGUUGAGGGAUUGGA [JR_SV3TOV1_Sub017] (puzzle: Sensor v3, turn-off variant 1) | MS2 coat protein | Condition met |
| AGAGAGUCAGGAUAUCGGAGGGAGAGGAGAGGAGAGAGGGACGAGAAGGGACAUGAGGAUCACCCAUGUAGGUG [JR_Exclusion4)Sub017] (puzzle: Exclusion 4) | MS2 coat protein | Condition met |
| CCUUUGUCAGGAUAUCAGAAAACGCCCGUAGGGAGCGCAAAUGAGAAGGGACAUGAGGAUCACCCAUGUAAAGA [Edvereri] (puzzle: Exclusion 4) | MS2 coat protein | Condition not met |
| AAGAAACAUGAGGAUCACCCAUGUGAGGAUAUGAAAAAGAAAAGAAAAGAAAGAAGGUUCAGAAGGCACAAAGG [salish99-ex1_r3_027] (puzzle: Exclusion 1) | MS2 coat protein | Condition not met |

###

System: MS2 coat protein
Experiment: apparent KD of MS2 coat protein; designed switch direction (-1 OFF switch, 1 ON switch): 1; higher = weaker reporter binding
Details: input ligand: microRNA oligo, concentration not stated
Quick reference for apparent KD of MS2 coat protein among some sequences

| SEQUENCE_TEXT | EXPERIMENTAL_TARGET | UNIT_SYMBOL | apparent KD of MS2 coat protein |
| --- | --- | --- | --- |
| AUUAAACAUGAGGAUCACCCAUGUCAACAAAGUCGAGGAUAUGGGCAAAUAAAAUAUGAACCAGAAGGCGAAUAAU [salish99_ss1_r3_064] (Eterna round: R96, puzzle: Same State 1) | MS2 coat protein | nM | 208 |
| AAGAAAGACGCAGGAUAUCAGUGCAGACCGCACUGAGAAGGGUGAGACAUGAGGAUCACCCAUGUAACACGACAAAACGUCGUG [Anritiat] (Eterna round: R96, puzzle: Same State NG 1) | MS2 coat protein | nM | 118 |
| AAAGAAGAAAGACAGGAUAUGGAUGGGUAAACAUGAGGAUCACCCAUGUAUAAGAAAGAAAGAAACCAGAAGGGUCAAAAGAAAA [Darius III] (Eterna round: R96, puzzle: Same State 2) | MS2 coat protein | nM | 217 |
| AUAUCCUUUUUAUACAUGAGGAUCACCCAUGUUUUUCUUACGUAGGAUAUCGUUGUUUUUUUUUACGAGAAGGACGUAGAAUGU [JR_SSND3_Sub063] (Eterna round: R96, puzzle: Same State NG 3) | MS2 coat protein | nM | 23.5 |
| GGCGAAUAAACAUGAGGAUCACCCAUGUAGCGGAGACGCAAUGAGGAUAUCGAUGGGUUUCCCGUCGAGAAGGCAUGGGUCGCC [JL SSNG3 3.93 mod 1] (Eterna round: R96, puzzle: Same State NG 3) | MS2 coat protein | nM | 99.6 |
| UCGGGCGUACUUGCAGACAUGAGGAUCACCCAUGUAAAUGGGAAGGAUAUGGUACCGUUUCGGUACCAGAAGGUCCUGGGUGCU [salish99_SSNG3_r04_308] (Eterna round: R96, puzzle: Same State NG 3) | MS2 coat protein | nM | 281 |
| GUAAAGAAAUAAGGAUAUUGAAUACAUAUGUUUAACAUGAGGAUCACCCAUGUGGGUUGCGGUAUCGAGAAGGUAUAAUAAAAG [Mat - Same State NG 2 - JL mod - D8] (Eterna round: R96, puzzle: Same State NG 2) | MS2 coat protein | nM | 171 |
| AGCCUGAGUCGAGGAUAUUAUGGAUCCUUUAAUACAUGAGGAUCACCCAUGUAAUUAAUUAUACAUGAGAAGGCGACUCAGGCA [SSNG2/11-A1] (Eterna round: R96, puzzle: Same State NG 2) | MS2 coat protein | nM | 30.4 |
| GAGGGCGAAAGCAACAUGAGGAUCACCCAUGUCCUCGGAGGGCAGGAUAUCCGGCGGUAGCCGAAGGAGAAGGGUCGGUAAACC [AK SSNG3-V2-33] (Eterna round: R96, puzzle: Same State NG 3) | MS2 coat protein | nM | 214 |
